# Tested target: T1, cTnI quality control product recombinant protein (human, UniProt P19429 2-210, limits assumed)
# T1 construct: treated as the same molecule; also called cTnI antigen; cardiac troponin I
# T1 sequence (P19429 2-210 limits assumed): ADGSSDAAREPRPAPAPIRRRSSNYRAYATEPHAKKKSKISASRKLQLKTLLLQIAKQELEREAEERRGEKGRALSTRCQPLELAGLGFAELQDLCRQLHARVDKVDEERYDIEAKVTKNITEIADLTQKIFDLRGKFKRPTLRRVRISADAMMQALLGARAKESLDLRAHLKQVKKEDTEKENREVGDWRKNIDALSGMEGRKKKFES
# Assay: AMC sensor, antibody immobilised, cTnI in solution
Would you kindly list pKd for each of these binders?
Give bare numbers, as −log10 of the molar value.

Take a look at these entries with their results.
Mutation 1-7 (antibody, V domains shown, Built as m8) VH: EVQLQQSGPELVKPGASVKMSCKASGYTFTIYVLHWVKQKPGQGLEWIGYIQPYLDGTKYNEKFKGKATLTVDKSSSTAFMELSSLTSEDSAVYYCARSGYGNYGLAWLAYWGQGTLVTVSA VL: QAVVIQESALTTSPGETVTLTCRSSTGAVTTSNYANWVQEKPDHLFTGLIGGSQNRAPGVPARFSGSLIGDKAALTITGAQTEDEAIYFCALVYSNHWVFGGGTKLTVLG: 8.56
Mutation 1-53 (antibody, V domains shown, Built as m8) VH: EVQLQQSGPELVKPGASVKMSCKASGYTFTIYVVHWVKQKPGQGLEWIGYIYPYIDGTKYNEKFKGKATLTVDKSSSTAFMELSSLTSEDSAVYYCARSGYGGYGLAWLAYWGQGTLVTVSA VL: QAVVIQESALTTSPGETVTLTCRSSTGAVTTSNYANWVQEKPDHLFTGLIGGSQNRAPGVPARFSGSLIGDKAALTITGAQTEDEAIYFCALVYSNQWVFGGGTKLTVLG: 8.08

# next binder below
// pKd value for Mutation 1-26 (antibody, V domains shown, Built as m8) VH: EVQLQQSGPELVKPGASVKMSCKASGYTFTIYVIHWVKQKPGQGLEWIGYIYPYLDGTKYNEKFKGKATLTVDKSSSTAFMELSSLTSEDSAVYYCARSGYGGYGLAWLAYWGQGTLVTVSA VL: QAVVIQESALTTSPGETVTLTCRSSTGAVTTSQYANWVQEKPDHLFTGLIGGSNNRAPGVPARFSGSLIGDKAALTITGAQTEDEAIYFCALVYSNQWVFGGGTKLTVLG : 9.33
